test: GPC glucuronidation in monkey liver microsomes (enzyme kinetics, species comparison); conditions: monkey, monkey liver microsomes, pH 7.4
measured-parameter: microsomal CLint (µL/min/mg)
The answer is to be given in µL/min/mg; state only the numeric part.

Name the reported microsomal CLint value associated with the compound CC(C)=C1CC=C([C@H]2CC[C@]3(C)[C@@H]2CC[C@@H]2[C@@]4(C)CC[C@H](O)C(C)(C)[C@@H]4CC[C@]23C)C1=O
77

* * *

tested on: glucuronidation (GPCG formation); assay: GPC glucuronidation in rat liver microsomes (enzyme kinetics, species comparison); details: Sprague-Dawley, rat, rat liver microsomes, pH 7.4
measured-parameter: Km at 30 min (µM)
The answer is to be given in µM; state only the numeric part.

Name the reported Km at 30 min value associated with the compound CC(C)=C1CC=C([C@H]2CC[C@]3(C)[C@@H]2CC[C@@H]2[C@@]4(C)CC[C@H](O)C(C)(C)[C@@H]4CC[C@]23C)C1=O
94.1
